Tgt: T1, human tenascin-R rCd4-His-FBG (rat; human, UniProt P05540 207-392, limits assumed)
T1 construct: domain: domains 3 and 4; C-terminal FBG fusion; also called Hu TNR; human TNR rCd4-His-FBG; not shown: 6His tag
T1 sequence (chain (part 1 of 2)): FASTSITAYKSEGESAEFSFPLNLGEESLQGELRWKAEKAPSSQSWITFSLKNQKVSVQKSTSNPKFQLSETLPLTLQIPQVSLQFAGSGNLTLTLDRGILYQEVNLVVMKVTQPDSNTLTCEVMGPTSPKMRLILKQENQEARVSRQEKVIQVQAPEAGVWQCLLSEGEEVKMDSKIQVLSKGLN
T1 sequence (chain (part 2 of 2)): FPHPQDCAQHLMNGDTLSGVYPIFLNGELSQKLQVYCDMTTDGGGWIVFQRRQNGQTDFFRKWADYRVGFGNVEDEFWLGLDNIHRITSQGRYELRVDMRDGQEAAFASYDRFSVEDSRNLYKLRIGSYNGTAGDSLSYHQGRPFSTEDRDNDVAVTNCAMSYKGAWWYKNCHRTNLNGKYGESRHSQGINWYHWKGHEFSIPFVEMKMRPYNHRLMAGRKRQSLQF
Assay Comment: SPR off-rate screen, captured IgG4 supernatant, 25 C
Output YES for koff not less than 0.004 s⁻¹; output NO otherwise.

Binder	Qualitative Label
161_01_C09 human IgG4 (antibody, V domains shown, human IgG4 with hinge S241P; also called Antibody 161 01 C09 (derived from 2A5)) VH: EVRLVQSGAEVKKPGASVKVSCKVSGYTLTELSMHWVRQAPGKGLEWMGGFDPEDGETIYAQKFQGRVTMTEDTSTDTAYMELSSLRSEDTAVYYCATAQLPYLAQTYWGQGTLVTVSS VL: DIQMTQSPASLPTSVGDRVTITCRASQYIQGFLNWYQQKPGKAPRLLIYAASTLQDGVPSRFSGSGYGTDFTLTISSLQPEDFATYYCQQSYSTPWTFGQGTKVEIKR	NO
162_02_H5 human IgG4 (antibody, V domains shown, human IgG4 with hinge S241P; also called Antibody 162 02 H5 (derived from 2A5)) VH: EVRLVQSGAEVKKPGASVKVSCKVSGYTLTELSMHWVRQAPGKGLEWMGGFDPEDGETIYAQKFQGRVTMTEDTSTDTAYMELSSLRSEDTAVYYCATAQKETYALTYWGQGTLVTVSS VL: DIQMTQSPASLPTSVGDRVTITCRASQYIQGFLNWYQQKPGKAPRLLIYAASTLQDGVPSRFSGSGYGTDFTLTISSLQPEDFATYYCQNQYTGPWTFGQGTKVEIKR	YES
165_13_D1 human IgG4 (antibody, V domains shown, human IgG4 with hinge S241P) VH: QVQLVESGGGLVQPGRSLRLSCAASGFTFDDYAMHWVRQAPGKGLEWVSGISGSGGSTYYADSVKGRFTISRDNAKNSLYLQMNSLRAEDTALYYCAKGTRGEGDTFDIWGQGTMVTVSS VL: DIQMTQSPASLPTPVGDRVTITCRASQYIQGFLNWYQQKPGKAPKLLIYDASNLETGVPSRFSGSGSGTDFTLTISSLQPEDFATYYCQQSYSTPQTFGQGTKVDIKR	YES

Please indicate if the recorded koff for 160_01_G2 human IgG4 (antibody, V domains shown, human IgG4 with hinge S241P; also called Antibody 160 01 G2 (derived from 2A5)) VH: EVRLVQSGAEVKKPGASVKVSCKVSGYTLTELSMHWVRQAPGKGLEWMGGFDPEDGETIYAQKFQGRVTMTEDTSTDTAYMELSSLRSEDTAVYYCATYTLDNMALTYWGQGTLVTVSS VL: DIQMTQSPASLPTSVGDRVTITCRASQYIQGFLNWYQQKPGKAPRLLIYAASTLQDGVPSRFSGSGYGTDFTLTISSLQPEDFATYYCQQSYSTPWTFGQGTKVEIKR meets or exceeds 0.004 s⁻¹. NO

# credit: patent US20170306005A1
